# study.system: Replication protein A (RPA heterotrimer) (human, UniProt P27694;P15927;P35244 1-616;1-270;1-121)
# Sequence (P27694 whole entry, chain 1 of 3): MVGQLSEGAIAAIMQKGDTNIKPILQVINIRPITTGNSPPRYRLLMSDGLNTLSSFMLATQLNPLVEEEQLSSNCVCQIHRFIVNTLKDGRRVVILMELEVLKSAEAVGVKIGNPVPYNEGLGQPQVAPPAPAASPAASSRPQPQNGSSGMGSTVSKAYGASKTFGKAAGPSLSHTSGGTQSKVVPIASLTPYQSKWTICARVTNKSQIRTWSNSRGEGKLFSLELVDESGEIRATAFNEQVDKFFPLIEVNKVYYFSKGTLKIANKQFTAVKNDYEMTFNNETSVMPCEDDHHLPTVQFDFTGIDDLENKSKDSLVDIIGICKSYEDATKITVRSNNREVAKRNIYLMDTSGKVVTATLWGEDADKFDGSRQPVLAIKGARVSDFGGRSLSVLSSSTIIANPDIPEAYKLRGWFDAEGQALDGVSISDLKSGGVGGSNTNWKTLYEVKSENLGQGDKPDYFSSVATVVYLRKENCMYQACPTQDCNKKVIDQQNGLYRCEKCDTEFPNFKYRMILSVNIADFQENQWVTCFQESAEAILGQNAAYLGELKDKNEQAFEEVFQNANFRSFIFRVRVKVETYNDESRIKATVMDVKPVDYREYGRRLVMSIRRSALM
# Sequence (P15927 whole entry, chain 2 of 3): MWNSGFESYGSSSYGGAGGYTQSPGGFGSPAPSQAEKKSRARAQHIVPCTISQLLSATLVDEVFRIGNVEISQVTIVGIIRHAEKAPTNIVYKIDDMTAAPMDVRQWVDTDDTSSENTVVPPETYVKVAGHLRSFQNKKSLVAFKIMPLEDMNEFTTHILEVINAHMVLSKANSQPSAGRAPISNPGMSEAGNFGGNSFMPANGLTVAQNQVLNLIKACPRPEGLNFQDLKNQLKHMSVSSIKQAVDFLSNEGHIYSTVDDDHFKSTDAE
# Sequence (P35244 whole entry, chain 3 of 3): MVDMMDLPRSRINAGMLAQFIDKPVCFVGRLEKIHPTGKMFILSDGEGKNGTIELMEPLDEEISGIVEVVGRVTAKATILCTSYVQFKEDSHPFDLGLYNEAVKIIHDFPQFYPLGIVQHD
# test.protocol: EMSA
Assignment: determine reported Kd for the given binders.
Give your result as the value with the unit written after it.

In: Supply Kd value. Item: CGUUAAGGGAUUUUGGUCAUGAGAUUAUCAAAAAGGAUCUUCACCUAG (ssRNA) [RNA no. 7R]
Out: 0.248 nM

In: Item UUUUAAAUCAAUCUAAAGUAUAUAUGAGUAAACUUGGUCUGACAGUUA (ssRNA) [RNA no. 8R] : provide Kd
Out: 0.0629 nM

Value source: paper doi:10.1101/2020.02.11.943977
